Just for reference, a melting point compilation (Tetko et al.; mined from patent text by program, amines drawn as free bases though some values may be those of a salt) is where these values come from.

Reported melting point by item:

compound	readout	reported-value
CC(C)(C)OC1CC(n2cnc3c(Cl)ncnc32)C2CC12COCc1ccccc1 (stereo not given)	melting point	112 to 113 °C
O=C(NC(C(=O)O)C1CC(Cl)=NO1)OCC1c2ccccc2-c2ccccc21 (stereo not given)	melting point	175 to 176 °C
OCc1ccc2ccc3c4ccccc4ccc3c2c1	melting point	187 to 189 °C
CCc1c(N)c(C(N)=O)nn1CC1CC1	melting point	143 to 145 °C

So what's the measured melting point for this one? O=C(Nc1ccc2c(c1)nc1n2CCCC1)c1cc2cccnc2n1Cc1ccccc1
233 to 235 °C

---

# key: entry, value: melting point

compound	melting point
Cc1ccc(C)c(C(=O)Nc2ccc(C(=O)N3Cc4ccccc4Cc4ccccc43)cc2)c1	213 to 216 °C

Which melting point reading was recorded for the compound O=C1Cc2cc([N+](=O)[O-])c(NC(=O)c3ccncc3)cc2N1 ?
> 300 °C

Find the recorded melting point belonging to CCOC(=O)c1ccc(N=C(Nc2ccc(C(=O)OCC)cc2)c2ccc(Cl)cc2)cc1 and report it.
171 to 172 °C

I am curious: what melting point value has been reported for CC1CC(=O)N(CCCCN2CCN(c3ncccn3)CC2)S(=O)(=O)N1 (stereo not given) ?
115 to 117 °C

# melting point lookup, item CCCNC(=S)Nc1nc2ccc(OC(F)(F)F)cc2s1
226 to 228 °C

---

Below is a list of entries, each paired with its recorded melting point value.

// solved cases for melting point follow
compound	reported-value
O=[N+]([O-])c1ccc(N2C[C@@H]3C[C@H]2CO3)c(F)c1	106 to 108 °C
CCCC1=C(C(=O)OCC)C(c2cccc3ccsc23)c2c[nH]nc2N1 (stereo not drawn)	166 °C
C[C@@H]1N=C(c2ccccc2)c2cc([N+](=O)[O-])ccc2N(C)C1=O	84 to 85 °C
CCOC(=O)c1cnc2nn(CC)cc2c1OCC	111 to 113 °C
Cc1ccc(S(=O)(=O)Nc2ccc(SC#N)cc2[N+](=O)[O-])cc1	121 to 122 °C
Fc1ccc(F)c2c(NCCc3ccc(Oc4ccnc(C(F)(F)F)c4Cl)cc3)ncnc12	129 to 131 °C

So what's the measured melting point for this one? Cc1ccnc2c1N=C(S(C)(=O)=O)c1cccnc1N2C1CC1
172 to 173 °C

Report melting point for O=C(Cn1c(-c2ccc(Br)cc2)nc2cccnc21)NCCN1CCCCC1 please.
178 to 179 °C

Which melting point value is on record for Cc1csc2ccc3c(c4c(n3CCCN(C)C)CCNC4)c12 ?
92 °C

Item O=C1CC2CCCC3(C2)c2cccn2CCN13 (stereo not drawn) has what recorded melting point?
130 to 132 °C

Field request: melting point | item: NC(=O)CNC(=O)CN1CC(O)CC1=O (stereo not drawn)
158 to 160 °C

Form field: reported melting point of CNc1onc2c1CCC2
52 °C

---

Entries annotated with measured melting point

Recorded melting point, per entry:
molecule	reported-value
O=C(O)Cc1ccc(CCCSc2ccc(Cl)cc2)cc1	94 to 96 °C
Cc1ccccc1OCC(O)CN(CCOc1ncccc1C(N)=O)Cc1ccccc1 (centres undefined)	109 to 112 °C
CC(C)(C)OC(=O)CC(NC(=O)C1CCCN2C(=O)CCC(NC(=O)c3ccccc3)C(=O)N12)C(O)COCc1c(Cl)cccc1Cl (centres undefined)	106 to 110 °C
CN(CCCNC(=NCCCOc1cccc(CN2CCCCC2)c1)NC#N)CCN(Cc1ccc(F)cc1)c1ccccn1	65 to 68 °C
Cn1c(=NC(=S)Nc2ccccc2)n(C)c2ccccc21	245 °C
OCC1OC(n2cnc3c(NCCCC(c4ccccc4)c4ccccc4)ncnc32)C(O)C1O (centres undefined)	102 to 108 °C

// lookup melting point for O=C(Nc1c(-c2ccccc2F)nnn1CSc1ccccc1)C(Cl)C1CCC1 (centres undefined)
103 to 104 °C

I would be grateful if you could share the reported melting point for COc1ccc(C(=C(C)P(c2ccccc2)c2ccccc2)c2ccc(OC)cc2)cc1 .
123 to 125 °C

Given O=C(O)[C@@H]1CCN2C(=O)CC[C@H](N3C(=O)c4ccccc4C3=O)C(=O)N12 , state its recorded melting point.
232 to 233 °C

---

# melting point per entry

compound	melting point
Cc1ccc(C(=O)COc2cc(C)cc(C)c2C)nc1	94 to 95 °C
COc1cc(N)c(Cl)cc1C(=O)NCC1CCN(CCCCCCOCc2ccccc2)CC1	91 to 95 °C
COc1ccccc1NC1=NN(S(=O)(=O)c2ccc(C)cc2)CC1	176 to 179 °C
CS(=O)c1ccc(-c2coc3ccc(-c4nnc(SCc5cccc(F)c5)o4)cc23)cc1 (stereo not given)	135 to 136 °C
CCOC(=O)Nc1nc(=O)n(CC2CC2)cc1F	90 to 92 °C

For O=C(NCc1ccccc1)c1[nH]c2ccc(Cl)cc2c1S(=O)(=O)c1ccccc1 , what is its reported melting point?
249 to 251 °C

Would you kindly share the measured melting point for COc1ccc2sc3ccccc3c2c1 ?
54 to 55 °C

State the recorded melting point for this entry: O=C(O)c1ccc(O)c(Cl)c1Cl
200 °C

# get_value(readout='melting point', item= COC(OC)c1ccc(C=C2C(=O)C3(C)CCC2C3(C)C)cc1 (stereo not given) )
98 °C

# query: melting point of entry CS(=O)(=O)c1ccc(C2=C(c3cccc(F)c3)C(=O)OC23CC3)cc1
130 to 131 °C

---

// values below are reported melting point

Worked cases, melting point given:
compound	melting point
CC(C)(C)c1cc(C[PH](=O)O)cc(C(C)(C)C)c1O	147 to 149 °C
O=C1CC(CO)N1Cc1ccccc1 (stereo unspecified)	94 °C
CN(c1ccncc1)c1csc2ncccc12	143 to 145 °C
O=C1CSc2cc(C(O)(C(F)(F)F)C(F)(F)F)ccc2N1	230 to 232 °C
O=C(NCc1ccc2ccccc2c1)C1=C(C(=O)Nc2cc(OC3CCCC3)c(Cl)cc2F)CCCC1	174 to 175 °C
COc1ccc(C(=NO)c2ccccc2F)c(Cl)c1Cl	195 to 197 °C
COc1cccc(NN=C(Sc2ccc(Cl)cc2)C(C)=O)c1	107 to 108 °C
CCCSc1c(C=NO)c(=O)n(C)c(=O)n1C	161 to 162 °C
Cc1ccc(S(=O)(=O)OCC2C(CC(C)C3CCC4C(O)CCCC34C)N(C)OC2(C)C)cc1 (stereo unspecified)	114 to 115 °C
CC#CCOc1cc(/C=C/C(=O)Nc2ccccc2C(=O)O)ccc1OC	170 to 171 °C

Consider the compound shown here: CCCC12CCC(=O)C=C1c1c(cc(OC)c(Cl)c1Cl)C2Br (stereo unspecified) What is its recorded melting point?
132 to 134 °C

Dear colleague, I am looking for the recorded melting point of the following compound: CC(C)(C)[Si](C)(C)Oc1ccc2c(c1)OC(O)c1c-2sc2cc(O[Si](C)(C)C(C)(C)C)ccc12 (stereo unspecified)
162 to 164 °C

Dear colleague, I am looking for the recorded melting point of the following compound: CC(=O)c1ccc(OCc2cccc([N+](=O)[O-])c2)cc1O
117 to 118 °C

// melting point lookup, key: Cc1ccccc1-c1cn2c(n1)-c1ccccc1Nc1ncccc1-2
215 to 217 °C

Query: melting point; subject: CSc1ncc(Cc2cccs2)c(=O)[nH]1
170 to 172 °C

Which melting point reading was recorded for the compound COc1ccc(Br)cc1C(=O)C(Br)C(Br)c1ccc(Br)cc1 (stereo unspecified) ?
158 to 159 °C

Data request, read-out melting point, for Nc1cc(C(=O)O)nn1-c1c(Cl)cc(C(F)(F)F)cc1Cl
213 °C

Which value of melting point has been reported for N#Cc1ccc(-c2ccc(C(=O)NCCCCN3CCC(c4ccc5ccccc5c4O)CC3)cc2)cc1 in the records?
135 to 140 °C

Which melting point value is on record for Cc1csc(-c2cc(=O)n(C)c3ccc(C(=O)c4ccc(Cl)cc4)cc23)n1 ?
236 °C

Please report the recorded melting point for COc1ccc2c(c1OC)C(=O)C(O)=C(C)C2=O .
218 °C

Suppose we examine the compound Cc1nc(NC(=O)c2cccc(OC(F)(F)F)c2)sc1C(=O)NCc1ccccc1 ; what melting point value has been reported?
230 to 232 °C

---

readout: melting point

// known answers, use as guide
compound	melting point
COc1cc(C=C[N+](=O)[O-])c2c(c1OC)CCC2	128 to 130 °C
Nc1cnc(-c2cc(Cl)ccc2Cl)c(N)n1	159 to 160 °C
CC(C)(C)CC(C)(C)c1cc(Cc2cc(C(C)(C)CC(C)(C)C)cc(C(C)(C)CC(C)(C)C)c2O)c(O)c(-n2nc3ccccc3n2)c1	174 °C
COc1cc(C2CCNCC2)ccc1Nc1ncc2ccc(N3CC(c4ccccc4)CC3=O)n2n1 (stereo not given)	178 to 183 °C
COC(=O)c1ccc(-c2nc(-c3cc(Cl)sc3Cl)cs2)cc1	149 to 150 °C
CC1=CC(COC(c2ccccc2)(c2ccccc2)c2ccccc2)O[C@@H]1c1coc(C#N)c1N (stereo not given in full)	68 °C
OCC=Cc1ccc(-c2ccc(OC(F)(F)F)cc2)cc1	121 to 123 °C
Cn1cc(-c2cccc(C(F)(F)F)c2)c(=O)c(C2CCCCC2)c1	174 to 175 °C
ON=C1CCN(CC2c3ccccc3CCc3ccccc32)CC1	199 to 202 °C
CS(=O)(=O)N1CCN([C@@H](CNS(=O)(=O)c2ccc(OCc3ccc(C#N)cc3)cc2)C(=O)NO)CC1	108 °C

Recorded melting point for COC(=O)[C@H](CO)NC(=O)[C@@H]1CCCN1C(=O)OCc1ccccc1 , please?
97 to 100 °C

Item under review: COCOc1ccc(OC)c(F)c1C(=O)c1ccc(C(=O)N[C@@H]2CCCN(C(=O)OC(C)(C)C)C[C@H]2NC(=O)c2ccncc2)cc1 . Reported melting point?
106 °C

I am curious: what melting point value has been reported for COc1ccccc1N1CCN(CCCNC(=O)c2csc3c(=O)cc(C(F)(F)F)oc23)CC1 ?
170 to 177 °C

Sample COc1c(-c2ccc3cc(NS(C)(=O)=O)ccc3c2)cc(-n2ccc(=O)[nH]c2=O)cc1-c1ccc(C)o1 — what was its melting point?
174 to 178 °C
